# System: Human immunodeficiency virus 1
# PROTOCOL_TEXT: In vitro inhibitory concentration against HIV-1 Y181C mutant strain
# Type: functional, organism-based
pIC50: −log10 of the molar value.
Could you label it true if measured pIC50 is 6 or higher, and false otherwise?

- MOLECULE: "CCc1c(C)[nH]c(=O)c(NC=O)c1Cc1cc(C)cc(C)c1"
  CATEGORY_LABEL: "false"
- MOLECULE: "CCCc1c(C)[nH]c(=O)c(N(C)C)c1Cc1cc(C)cc(C)c1"
  CATEGORY_LABEL: "true"
- MOLECULE: "CCc1c(C)[nH]c(=O)c(N(C)CCOC)c1Cc1cccc(/C=C/C#N)c1"
  CATEGORY_LABEL: "true"
- MOLECULE: "Cc1cccc(C(=O)c2c(C)c(C)nc(O)c2N(C)C)c1"
  CATEGORY_LABEL: "false"
- MOLECULE: "CCc1c(C)[nH]c(=O)c(N2CCOCC2)c1Cc1cc(C)cc(C)c1"
  CATEGORY_LABEL: "false"
- MOLECULE: "Cc1cc(C)cc(Cc2cc[nH]c(=O)c2N(C)C)c1"
  CATEGORY_LABEL: "false"
- MOLECULE: "CCc1c(C)[nH]c(=O)c(N(C)CC#N)c1Cc1cccc(C)c1"
  CATEGORY_LABEL: "false"
- MOLECULE: "CCc1c(C)[nH]c(=O)c(N(C)C(C)COC)c1Cc1cc(C)cc(C)c1 (stereo unspecified)"
  CATEGORY_LABEL: "true"

* * *

Below is a list of entries, each paired with its recorded IC50 value.
# System: Human immunodeficiency virus 1
# PROTOCOL_TEXT: In vitro inhibitory concentration against HIV V106A mutant strain
# Format: functional, organism-based

- COMPOUND: "O=C1Nc2ccc(Cl)cc2[C@@](C#CC2CC2)(C(F)(F)F)O1"
  IC50, nM: 40
- COMPOUND: "CCc1c(C)[nH]c(=O)c(N(C)C)c1Cc1cc(C)cc(C)c1"
  IC50, nM: 40
- COMPOUND: "CCc1c(C)[nH]c(=O)c(N(C)CC)c1Cc1cccc(/C=C/C#N)c1"
  IC50, nM: 8
- COMPOUND: "CCc1c(C)[nH]c(=O)c(N(C)CC)c1Cc1cc(C)cc(C)c1"
  IC50, nM: 316
- COMPOUND: "CCc1c(C)[nH]c(=O)c(N(C)CCOC)c1Cc1cccc(C)c1"
  IC50, nM: 63
- COMPOUND: "COCCCc1c(C)nc(O)c(N(C)C)c1C(=O)c1cccc(C)c1"
  IC50, nM: 40
- COMPOUND: "CCc1c(C)[nH]c(=O)c(N(C)C)c1C(=O)c1cc(C)cc(C)c1"
  IC50, nM: 6

* * *

Below is a list of entries, each paired with its recorded pIC50 value.
# Test system: Human immunodeficiency virus 1
# PROTOCOL_TEXT: In vitro inhibitory concentration value against HIV K103N and Y181C mutant strain
# Assay type: functional, organism-based
pIC50: −log10 of the molar value.

- COMPOUND: "CCc1c(C)nc(O)c(N(C)CCOC)c1C(=O)c1cccc(C)c1"
  SYSTEM_UNDER_TEST: "Human immunodeficiency virus 1"
  pIC50: 5.55
- COMPOUND: "CCc1c(C)[nH]c(=O)c(N(C)CC)c1Cc1cccc(/C=C/C#N)c1"
  SYSTEM_UNDER_TEST: "Human immunodeficiency virus 1"
  pIC50: 6.70
- COMPOUND: "Cc1ccnc2c1NC(=O)c1cccnc1N2C1CC1"
  SYSTEM_UNDER_TEST: "Human immunodeficiency virus 1"
  pIC50: 4.00
- COMPOUND: "CCc1c(CO)nc(O)c(N(C)C)c1C(=O)c1cc(C)cc(C)c1"
  SYSTEM_UNDER_TEST: "Human immunodeficiency virus 1"
  pIC50: 6.83
- COMPOUND: "CCc1c(C)[nH]c(=O)c(N(C)C)c1C(=O)c1cc(C)cc(C)c1"
  SYSTEM_UNDER_TEST: "Human immunodeficiency virus 1"
  pIC50: 6.80
- COMPOUND: "CCc1c(C)[nH]c(=O)c(N(C)CCOC)c1Cc1cccc(/C=C/C#N)c1"
  SYSTEM_UNDER_TEST: "Human immunodeficiency virus 1"
  pIC50: 6.40

* * *

# Test system: Human immunodeficiency virus 1
# PROTOCOL_TEXT: In vitro inhibitory concentration against HIV-1 Y181C mutant strain
# Assay type: functional, organism-based
Below is a list of entries, each paired with its recorded IC50 value.

- COMPOUND: "CCc1c(C)[nH]c(=O)c(NC(C)=O)c1Cc1cc(C)cc(C)c1"
  IC50 [nM]: 25100
- COMPOUND: "CCC(=O)Nc1c(Cc2cc(C)cc(C)c2)c(CC)c(C)[nH]c1=O"
  IC50 [nM]: 100000
- COMPOUND: "COCCCc1c(C)nc(O)c(N(C)C)c1C(=O)c1cc(C)cc(C)c1"
  IC50 [nM]: 50
- COMPOUND: "CCCN(C)c1c(Cc2cc(C)cc(C)c2)c(CC)c(C)[nH]c1=O"
  IC50 [nM]: 398
- COMPOUND: "Cc1cc(C)cc(Cc2cc(C)[nH]c(=O)c2N(C)C)c1"
  IC50 [nM]: 79400
- COMPOUND: "CCc1c(C)[nH]c(=O)c(N(C)CC)c1Cc1cc(C)cc(C)c1"
  IC50 [nM]: 316
- COMPOUND: "COCCc1c(C)nc(O)c(N(C)C)c1C(=O)c1cccc(C)c1"
  IC50 [nM]: 1260
- COMPOUND: "CCc1c(C)[nH]c(=O)c(N(C)CCCSC)c1Cc1cc(C)cc(C)c1"
  IC50 [nM]: 501
- COMPOUND: "COCCCc1c(C)nc(O)c(N(C)C)c1C(=O)c1cccc(C)c1"
  IC50 [nM]: 160
- COMPOUND: "CCc1c(C)[nH]c(=O)c(N(C)CCOC)c1Cc1cc(C)cc(C)c1"
  IC50 [nM]: 316
- COMPOUND: "CCc1c(C)[nH]c(=O)c(NCc2ccccc2)c1Cc1cc(C)cc(C)c1"
  IC50 [nM]: 10000

* * *

Below is a list of entries, each paired with its recorded pIC50 value.
# Tested on: Human immunodeficiency virus 1
# PROTOCOL_TEXT: In vitro inhibitory concentration against HIV-1 Y181C mutant strain
# Assay type: functional, organism-based
pIC50: −log10 of the molar value.

- COMPOUND: "CCc1c(C)[nH]c(=O)c(N2CCCCC2)c1Cc1cc(C)cc(C)c1"
  pIC50: 4.40
- COMPOUND: "Cc1cc(C)cc(Cc2c(C)c(C)[nH]c(=O)c2N(C)C)c1"
  pIC50: 6.40
- COMPOUND: "Cc1cc(C)cc(Cc2c(CC(C)C)c(C)[nH]c(=O)c2N(C)C)c1"
  pIC50: 6.80
- COMPOUND: "Cc1ccnc2c1NC(=O)c1cccnc1N2C1CC1"
  pIC50: 5.00
- COMPOUND: "CCc1c(C)[nH]c(=O)c(N(Cc2ccccc2)Cc2ccccc2)c1Cc1cc(C)cc(C)c1"
  pIC50: 4.10
- COMPOUND: "CCCCN(CCCC)c1c(Cc2cc(C)cc(C)c2)c(CC)c(C)[nH]c1=O"
  pIC50: 4.00

* * *

# Tested on: Human immunodeficiency virus 1
# PROTOCOL_TEXT: In vitro inhibitory concentration value against HIV K103N and Y181C mutant strain
# Type: functional, organism-based
Below is a list of entries, each paired with its recorded log10 IC50 value.
OUTCOME_MEASURE: log10 IC50 (log10 of the value in µM)

- MOLECULE: "CCc1c(C)[nH]c(=O)c(N(C)CCOC)c1Cc1cc(C)cc(C)c1"
  OUTCOME_MEASURE: "log10 IC50"
  OBSERVED_VALUE: 0.52
- MOLECULE: "COCCCc1c(C)nc(O)c(N(C)C)c1C(=O)c1cccc(C)c1"
  OUTCOME_MEASURE: "log10 IC50"
  OBSERVED_VALUE: -0.70
- MOLECULE: "CCc1c(C)[nH]c(=O)c(N(C)C)c1Cc1cc(C)cc(C)c1"
  OUTCOME_MEASURE: "log10 IC50"
  OBSERVED_VALUE: -0.10
- MOLECULE: "CCc1c(C)[nH]c(=O)c(N(C)C(C)COC)c1Cc1cc(C)cc(C)c1 (stereo unspecified)"
  OUTCOME_MEASURE: "log10 IC50"
  OBSERVED_VALUE: 0.94
- MOLECULE: "CCc1c(C)[nH]c(=O)c(N(C)CC)c1Cc1cc(C)cc(C)c1"
  OUTCOME_MEASURE: "log10 IC50"
  OBSERVED_VALUE: 0.49
- MOLECULE: "CCc1c(C)[nH]c(=O)c(N(C)CCOC)c1Cc1cccc(C)c1"
  OUTCOME_MEASURE: "log10 IC50"
  OBSERVED_VALUE: 1.00
